# tested-system: Motilin Receptor (Oryctolagus cuniculus)
# Construct: strips of longitudinal smooth muscle were sliced from the segments; from tissue; host or cells: rabbit duodenum longitudinal smooth muscle strips
# Sequence (G1T803 1-400): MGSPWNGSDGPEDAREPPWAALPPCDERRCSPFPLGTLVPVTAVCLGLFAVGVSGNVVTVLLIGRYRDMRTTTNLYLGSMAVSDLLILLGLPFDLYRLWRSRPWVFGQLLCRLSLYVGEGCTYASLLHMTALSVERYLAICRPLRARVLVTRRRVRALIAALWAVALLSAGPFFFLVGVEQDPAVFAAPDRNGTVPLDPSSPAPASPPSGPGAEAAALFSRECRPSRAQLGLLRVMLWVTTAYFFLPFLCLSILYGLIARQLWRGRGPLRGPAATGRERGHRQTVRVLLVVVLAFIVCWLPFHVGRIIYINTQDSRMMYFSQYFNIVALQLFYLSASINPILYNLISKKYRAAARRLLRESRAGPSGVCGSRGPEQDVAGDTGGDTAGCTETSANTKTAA
# experiment-description: Tissue based assay for motilin agonist potency (rabbit duodenum contractility)
# Format: cell-based
# cond: rabbit duodenum strips, contraction normalized to 1 μM carbachol; read-out: Motilin Receptor Agonist Activity (EC50)
# Description: The motilin agonist potencies of compounds of this invention were evaluated using a tissue based assay, using rabbit duodenum tissue-based contractility assay, generally following the procedure of Depoortere et al., J. Gastrointestinal Motility, 1, 150-159 (1989), the disclosure of which is incorporated herein by reference. […] The EC50 (concentration producing a half-maximal effect) was calculated as follows. The basal tension was subtracted from the compound-induced tension for each reading. […]
Below, each entry is listed with its recorded EC50.
Write the number in nM without appending the unit.

Field: example entries. Status: answers known.
CC[C@H]1OC(=O)[C@H](C)[C@@H](O[C@H]2C[C@@](C)(OC)[C@@H](O)[C@H](C)O2)[C@H](C)[C@@H](O[C@@H]2O[C@H](C)C[C@H](N(C)CCO)[C@H]2O)[C@](C)(O)C[C@@H](C)[C@H](NS(C)(=O)=O)[C@H](C)[C@@H](O)[C@]1(C)O    66
CC[C@H]1OC(=O)[C@H](C)[C@@H](O[C@H]2C[C@@](C)(OC)[C@@H](O)[C@H](C)O2)[C@H](C)[C@@H](O[C@@H]2O[C@H](C)C[C@H](N(C)C(C)C)[C@H]2O)[C@](C)(O)C[C@@H](C)[C@H](OCc2cc(C)on2)[C@H](C)[C@@H](O)[C@]1(C)O    110

In: For Motilin Receptor (Oryctolagus cuniculus), provide EC50 of CC[C@H]1OC(=O)[C@H](C)[C@@H](O[C@H]2C[C@@](C)(OC)[C@@H](O)[C@H](C)O2)[C@H](C)[C@@H](O[C@@H]2O[C@H](C)C[C@H](N(C)C(C)C)[C@H]2O)[C@](C)(O)C[C@@H](C)[C@H](OCCCCCC(=O)NC)[C@H](C)[C@@H](O)[C@]1(C)O please.
Out: 150

In: What value of EC50 on Motilin Receptor (Oryctolagus cuniculus) does CCNC(=O)NCCO[C@@H]1[C@H](C)[C@@H](O)[C@](C)(O)[C@@H](CC)OC(=O)[C@H](C)[C@@H](O[C@H]2C[C@@](C)(OC)[C@@H](O)[C@H](C)O2)[C@H](C)[C@@H](O[C@@H]2O[C@H](C)C[C@H](N(C)C(C)C)[C@H]2O)[C@](C)(O)C[C@H]1C have?
Out: 100
